Test system: 496974-208-R-J2-PDC complex spheroids, growth % test/control;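 further: spheroids exposed to the drugs for 7 days before readout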
ASSAY NAME: Anticancer human tumor 496974-208-R-J2-PDC patient-derived pancreatic carcinoma cell line growth inhibition [CLK]; active means viability on the fitted dose curve at most 10% of control; inactive means the rest
CONDITION: second compound 0.316 µM; first compound 0.316 µM
// classify into active, inactive

Tell me the assay call for CC(=O)O[C@H]1C(=O)[C@@]2(C)[C@H]([C@H](OC(=O)c3ccccc3)[C@]3(O)C[C@H](OC(=O)[C@H](O)[C@@H](NC(=O)c4ccccc4)c4ccccc4)C(C)=C1C3(C)C)[C@]1(OC(C)=O)CO[C@@H]1C[C@@H]2O + CN1CCN(c2cc(C(=O)Nc3cc4cc(-c5cnn(C)c5)ccc4cn3)ccn2)CC1 please.
active

And what about the molecule O=c1[nH]cc(F)c(=O)[nH]1 + CNC(=O)c1ccc(Nc2nc(OC3CCCC3)c3c(-c4ccc5nc(C)oc5c4)c[nH]c3n2)c(OC)c1 ?
inactive

And what about the molecule C#Cc1c(F)ccc2cc(O)cc(-c3ncc4c(N5CC6CCC(C5)N6)nc(OCC56CCCN5CC(F)C6)nc4c3F)c12 (stereo unspecified) + CN1CCN(c2cc(C(=O)Nc3cc4cc(-c5cnn(C)c5)ccc4cn3)ccn2)CC1 ?
active

And what about the molecule Nc1ccccc1NC(=O)c1ccc(CNC(=O)OCc2cccnc2)cc1 + CN1CCN(c2cc(C(=O)Nc3cc4cc(-c5cnn(C)c5)ccc4cn3)ccn2)CC1 ?
active

And what about the molecule COc1cccc2c1C(=O)c1c(O)c3c(c(O)c1C2=O)CC(O)(C(=O)CO)CC3OC1CC(N)C(O)C(C)O1 (stereo unspecified) + CN1CCN(c2cc(C(=O)Nc3cc4cc(-c5cnn(C)c5)ccc4cn3)ccn2)CC1 ?
active

And what about the molecule CCc1c2c(nc3ccc(O)cc13)-c1cc3c(c(=O)n1C2)COC(=O)[C@]3(O)CC + CN1CCN(c2cc(C(=O)Nc3cc4cc(-c5cnn(C)c5)ccc4cn3)ccn2)CC1 ?
active

And what about the molecule COC1C=CCC(C)C(C)S(=O)(=O)NC(=O)c2ccc3c(c2)N(CC2CCC21)CC1(CCCc2cc(Cl)ccc21)CO3 (stereo unspecified) + CNC(=O)c1ccc(Nc2nc(OC3CCCC3)c3c(-c4ccc5nc(C)oc5c4)c[nH]c3n2)c(OC)c1 ?
inactive

And what about the molecule COc1cccc2c1C(=O)c1c(O)c3c(c(O)c1C2=O)CC(O)(C(=O)CO)CC3OC1CC(N)C(O)C(C)O1 (stereo unspecified) + CNC(=O)c1ccc(Nc2nc(OC3CCCC3)c3c(-c4ccc5nc(C)oc5c4)c[nH]c3n2)c(OC)c1 ?
inactive

And what about the molecule CCCS(=O)(=O)Nc1ccc(F)c(C(=O)c2c[nH]c3ncc(-c4ccc(Cl)cc4)cc23)c1F + CNC(=O)c1ccc(Nc2nc(OC3CCCC3)c3c(-c4ccc5nc(C)oc5c4)c[nH]c3n2)c(OC)c1 ?
inactive

And what about the molecule CCCS(=O)(=O)Nc1ccc(F)c(C(=O)c2c[nH]c3ncc(-c4ccc(Cl)cc4)cc23)c1F + CN1CCN(c2cc(C(=O)Nc3cc4cc(-c5cnn(C)c5)ccc4cn3)ccn2)CC1 ?
inactive

And what about the molecule C=C(F)C(=O)N1CCN(c2nc(OCC3CCCN3C)nc3c2CCN(c2cccc4cccc(Cl)c24)C3)CC1CC#N (stereo unspecified) + CN1CCN(c2cc(C(=O)Nc3cc4cc(-c5cnn(C)c5)ccc4cn3)ccn2)CC1 ?
active
